Molecular target: recombinant human MAO-B (monoamine oxidase-B) (Homo sapiens)
Construct: purchased Sigma-Aldrich
Sequence (P27338 1-520): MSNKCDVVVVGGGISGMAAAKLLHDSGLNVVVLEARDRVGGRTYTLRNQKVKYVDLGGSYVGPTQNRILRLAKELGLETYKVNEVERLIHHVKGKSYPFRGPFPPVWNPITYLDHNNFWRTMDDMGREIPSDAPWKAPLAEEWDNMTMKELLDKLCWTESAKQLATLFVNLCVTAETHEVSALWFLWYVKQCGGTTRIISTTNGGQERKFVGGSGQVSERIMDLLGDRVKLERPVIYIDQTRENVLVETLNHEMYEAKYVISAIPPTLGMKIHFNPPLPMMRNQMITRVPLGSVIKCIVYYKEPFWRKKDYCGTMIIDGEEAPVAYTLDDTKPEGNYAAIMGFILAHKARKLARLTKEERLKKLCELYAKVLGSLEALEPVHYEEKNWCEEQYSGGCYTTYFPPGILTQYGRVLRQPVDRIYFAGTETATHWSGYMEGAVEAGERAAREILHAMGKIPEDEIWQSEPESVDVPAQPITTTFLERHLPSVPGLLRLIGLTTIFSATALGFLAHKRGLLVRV
Assay: Activity on recombinant human MAO-B, method similar to the VAP-1 assay
Format: biochemical
Details: substrate 1 mM benzylamine; read-out: Inhibitory Activity (IC50, nM) MAO-B
Counter-ions that a name gives are not always drawn.
measuredQuantity: IC50 (nM)

Answered cases to consult:
molecule="NC/C(=C\\F)Cn1ncn(Cc2ccc(-c3ccc4c(c3)CCCN4)s2)c1=O [Example 110, hydrochloride]" reportedmeasurement=370
molecule="NC/C(=C\\F)Cn1ncn(Cc2ccc(C#Cc3ccc(N4CCOCC4)nc3)s2)c1=O [Example 129, hydrochloride]" reportedmeasurement=770
molecule=CS(=O)(=O)Nc1cccc(-c2ccc(Cn3cnn(C/C(=C/F)CN)c3=O)s2)c1 reportedmeasurement=300
molecule=NC/C(=C\F)Cn1ncn(Cc2ccc(-c3ccc(OCC4CC4)nc3)s2)c1=O reportedmeasurement=570

P = COc1cc(-c2ccc(Cn3cnn(C/C(=C/F)CN)c3=O)s2)cnc1OC
Q = NC/C(=C\F)Cn1ncn(Cc2ccc(-c3ccc(=O)n(C4CC4)c3)s2)c1=O
R = CC(=O)Nc1nc2cc(-c3ccc(Cn4cnn(C/C(=C/F)CN)c4=O)s3)ccc2s1
S = NC/C(=C\F)Cn1ncn(Cc2ccc(-c3cccc(-c4noc(C5CC5)n4)c3)s2)c1=O [Example 36, hydrochloride]
Q: Order the 4 molecules from highest to lowest IC50. Answer by listing the labels in the requested order.
Ans: Q, P, R, S

====

Biological target: recombinant human VAP-1 (Homo sapiens)
Construct: purchased R&D systems
Sequence (Q16853 1-763): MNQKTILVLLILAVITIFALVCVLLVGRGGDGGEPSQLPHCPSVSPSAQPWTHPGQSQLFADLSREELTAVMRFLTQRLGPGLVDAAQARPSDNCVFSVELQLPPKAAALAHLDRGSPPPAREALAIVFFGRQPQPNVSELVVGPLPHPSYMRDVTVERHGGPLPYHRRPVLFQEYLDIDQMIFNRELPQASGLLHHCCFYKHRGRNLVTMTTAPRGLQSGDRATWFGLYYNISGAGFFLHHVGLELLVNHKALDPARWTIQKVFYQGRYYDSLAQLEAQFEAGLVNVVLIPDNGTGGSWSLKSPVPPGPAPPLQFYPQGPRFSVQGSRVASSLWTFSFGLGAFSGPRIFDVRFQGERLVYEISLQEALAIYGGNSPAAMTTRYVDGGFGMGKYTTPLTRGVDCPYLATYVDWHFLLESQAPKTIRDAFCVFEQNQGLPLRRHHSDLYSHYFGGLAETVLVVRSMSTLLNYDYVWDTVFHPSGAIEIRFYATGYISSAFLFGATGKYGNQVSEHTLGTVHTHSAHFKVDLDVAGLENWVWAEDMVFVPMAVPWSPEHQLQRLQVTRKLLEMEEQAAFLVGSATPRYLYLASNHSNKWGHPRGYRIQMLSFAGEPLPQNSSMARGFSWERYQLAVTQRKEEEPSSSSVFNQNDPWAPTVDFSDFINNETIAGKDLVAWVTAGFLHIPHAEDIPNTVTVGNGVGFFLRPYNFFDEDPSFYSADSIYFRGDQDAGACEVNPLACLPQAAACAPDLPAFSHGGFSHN
Assay: Activity on recombinant human VAP-1, HRP-coupled Amplex Red hydrogen peroxide assay
Format: biochemical
Conditions: substrate 1 mM benzylamine; compound incubated with enzyme at 37° C. for 30 minutes; pH 7.4; read-out: Inhibitory Activity (IC50, nM) human VAP-1
Structures can show the parent of a compound that is named as a salt.
measuredQuantity: IC50 (nM)

a = NC/C(=C\F)Cn1ncn(Cc2ccc(C#Cc3ccc4c(c3)CCC(=O)N4)s2)c1=O [Example 133, hydrochloride]
b = NC/C(=C\F)Cn1ncn(Cc2cc3cc(-c4ccc(N5CCNCC5)cc4)ccc3s2)c1=O
c = NC/C(=C\F)Cn1ncn(Cc2ccc(-c3cc4c(cc3F)OCC(=O)N4)s2)c1=O [Example 93, hydrochloride]
d = N#Cc1ncc(-c2ccc(Cn3cnn(C/C(=C/F)CN)c3=O)s2)cn1 [Example 54, hydrochloride]
Q: // ascending sort on IC50 for the entries above Answer by listing the labels in the requested order.
Ans: a, c, d, b
(a: 0.2 nM, c: 0.4 nM, d: 1.7 nM, b: 3 nM)
